assay.text: inhibition of PAO1 biofilm formation – strain PAO1, LB-PBS medium, absorbance 600 nm, primary screen (AID 1176); also: test concentration not given here
measurement.parameters: P. aeruginosa PAO1 growth/biofilm, A600, 12 h; higher = more signal
Classify as follows. Reported z-score greater than or equal to 0.4: True. Reported z-score below: False.

Query: # check: z-score of [N-]=[N+]=NCc1ccccc1[C@@H]1OC(c2ccc(OCCCO)cc2)=N[C@]1(CCS(=O)(=O)c1ccccc1)C(=O)O is greater than or equal to 0.4
Reply: False

Query: # check: z-score of N[C@@H](Cc1ccccc1)C(=O)NCc1cn(Cc2ccccc2)nn1 is greater than or equal to 0.4
Reply: False

Query: # check: z-score of COCCOC(=O)N1C(=O)[C@@]2(c3cc(C#CCCO)ccc31)[C@H](C(=O)Nc1nc3ccccc3s1)[C@H]1C(=O)O[C@H](c3ccccc3)[C@H](c3ccccc3)N1[C@@H]2c1ccc(O)cc1 is greater than or equal to 0.4
Reply: False

Query: # check: z-score of CCCC=C(CCC)[C@@H](NP(=O)(c1ccccc1)c1ccccc1)c1ccc(-c2ccccc2)cc1 is greater than or equal to 0.4
Reply: False

Query: # check: z-score of CCCC=C(CCC)[C@@H](NS(=O)(=O)c1ccc(C(F)(F)F)cc1)c1ccccc1 is greater than or equal to 0.4
Reply: True

====

Tested on: Chordin-like protein 2 (CHRDL2)
assay.text: compounds binding chordin-like 2 – biochemical, small-molecule microarray, 635 nm fluorescence, primary screen (AID 1126);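 also: printed compound slides probed with Chrdl2 protein at 4 µg/mL for 1 h at 4 C; score merges 667 nm emission intensity with signal to noise over three replicate slides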
measurement.parameters: fluorescence 635 nm, higher = more signal
assay.metric: composite z-score
Respond using a number only.

Query: Value wanted: composite z-score (Chordin-like protein 2 (CHRDL2)) of entry Cc1ccccc1C(O)C1C=CC2C(=O)NC(=O)C2N1Nc1ccccn1 (stereo not given)
Reply: 0.102

Query: Value wanted: composite z-score (Chordin-like protein 2 (CHRDL2)) of entry CCOC(=O)[C@@H]1CCCCN1C(=O)C(=O)OC
Reply: -0.0507

Query: Value wanted: composite z-score (Chordin-like protein 2 (CHRDL2)) of entry COc1ccc([C@H]2OC[C@@H]3C[C@H](Cc4ccccc4)C(=O)N32)cc1
Reply: 0.0962

Query: Value wanted: composite z-score (Chordin-like protein 2 (CHRDL2)) of entry COc1ccc([Si](C)(C)[C@@H]2[C@@H](CCO)O[C@]3(C(=O)N(Cc4cccc(NC(=O)[C@H](C)O)c4)c4ccccc43)[C@H]2C)cc1
Reply: -0.083

Query: Value wanted: composite z-score (Chordin-like protein 2 (CHRDL2)) of entry C=CCC(OC(C)=O)[C@@H]1[C@@H](N(Cc2ccc(-c3ccccc3)cc2)C(=O)c2ccc(-c3ccccc3)cc2)c2cc(OCCCO)ccc2N1C(=O)c1ccc2ccccc2c1 (stereo not given in full)
Reply: 0.0949

Query: Value wanted: composite z-score (Chordin-like protein 2 (CHRDL2)) of entry C=CCC(OC(C)=O)[C@@H]1[C@@H](N(Cc2ccc(-c3cccc(C(F)(F)F)c3)o2)C(=O)Cc2ccc(OC)cc2)c2cc(OCCCO)ccc2N1C(=O)c1ccc(-c2ccccc2)cc1 (stereo not given in full)
Reply: 0.121

Query: Value wanted: composite z-score (Chordin-like protein 2 (CHRDL2)) of entry CC(CO)N1C(=O)[C@]2(C)C3C(=O)OCCC/C=C\[C@H]3OC23C=CCN(c2ccc(Cl)cc2)C(=O)[C@@H]13 (stereo not given in full)
Reply: 0.217

Query: Value wanted: composite z-score (Chordin-like protein 2 (CHRDL2)) of entry [N-]=[N+]=Nc1ccccc1C[C@]1(C(=O)NCC(O)CO)COC(c2ccc(OCCCO)cc2)=N1 (stereo not given in full)
Reply: -1.21

Query: Value wanted: composite z-score (Chordin-like protein 2 (CHRDL2)) of entry CC(C)[Si]1(C(C)C)OCc2cc(-c3ccc(-c4ccc(Cl)c(Cl)c4)o3)nc(-c3ccccc3)c21
Reply: -0.541

Query: Value wanted: composite z-score (Chordin-like protein 2 (CHRDL2)) of entry COc1cc2c(cc1O)C(C1CC1)N(Cc1cccc(OC(F)(F)F)c1)CC2 (stereo not given)
Reply: 0.13

Query: Value wanted: composite z-score (Chordin-like protein 2 (CHRDL2)) of entry C=C(COC)/C(=C/C[C@H](OC(=O)c1ccncc1)c1ccc(CO)o1)c1cnc2ccccc2c1
Reply: 0.766

Query: Value wanted: composite z-score (Chordin-like protein 2 (CHRDL2)) of entry CC1CC/C=C\[C@H]2OC34C=CCN(Cc5ccccc5)C(=O)[C@H]3N(C(CO)C(C)C)C(=O)[C@@H]4C2C(=O)O1 (stereo not given in full)
Reply: -0.398

Query: Value wanted: composite z-score (Chordin-like protein 2 (CHRDL2)) of entry COC(=O)C(CC#Cc1ccc2c(c1)[C@]1(C(=O)N2)[C@H](c2ccc(O)cc2)N2[C@H](c3ccccc3)[C@H](c3ccccc3)OC(=O)[C@H]2[C@@H]1C(=O)NC[C@H](O)c1ccccc1)C(=O)OC
Reply: 0.294

Query: Value wanted: composite z-score (Chordin-like protein 2 (CHRDL2)) of entry CCCCCC1=C2CNC(C)(C(=O)OC)C=C2C(C)C1=O (stereo not given)
Reply: -0.409

Query: Value wanted: composite z-score (Chordin-like protein 2 (CHRDL2)) of entry COc1ccc([Si](C)(C)[C@@H]2[C@@H](CC(=O)N(CCO)Cc3ccccc3)O[C@]3(C(=O)N(Cc4cccc(N5CCCCC5=O)c4)c4ccccc43)[C@H]2C)cc1
Reply: 0.905

Query: Value wanted: composite z-score (Chordin-like protein 2 (CHRDL2)) of entry CC1=C2[C@@H](CCc3ccccc3)OB(O)C[C@@H]2[C@@H]2C(=O)N(C)C(=O)[C@@H]2C1
Reply: 0.723

Query: Value wanted: composite z-score (Chordin-like protein 2 (CHRDL2)) of entry C=C[C@@H](OC)[C@H](OC(=O)Nc1ccc(OC)cc1)c1ccc(O)c(F)c1
Reply: 0.746

Query: Value wanted: composite z-score (Chordin-like protein 2 (CHRDL2)) of entry CO[C@H]1O[C@H](CO)[C@@H](OC(=O)Nc2ccc(Br)cc2)[C@@H]2OC(=O)[C@@H](Cc3ccccc3)C/C=C/C[C@H](Cc3ccccc3)C(=O)O[C@@H]12
Reply: -0.173

Query: Value wanted: composite z-score (Chordin-like protein 2 (CHRDL2)) of entry COC(=O)[C@@]1(Cc2ccc(F)cc2)[C@H]2c3cc(C(=O)N(C)C)n(CCc4ccc(OC)c(Br)c4)c3C[C@H]2CN1C(=O)c1ccccc1
Reply: -0.66

Query: Value wanted: composite z-score (Chordin-like protein 2 (CHRDL2)) of entry CC(C)C(CO)N1C(=O)[C@@H]2C3C(=O)OCCC/C=C\[C@H]3OC23C=CCN(Cn2nnc4ccccc42)C(=O)[C@@H]13 (stereo not given in full)
Reply: -0.81

Query: Value wanted: composite z-score (Chordin-like protein 2 (CHRDL2)) of entry CN(C)C(=O)[C@]1(CCC(=O)OC(C)(C)C)N=C(c2ccc(OCCCO)cc2)O[C@@H]1c1ccccc1CN=[N+]=[N-]
Reply: -1.24

Query: Value wanted: composite z-score (Chordin-like protein 2 (CHRDL2)) of entry CC(C)N1C(=O)c2ccccc2[C@@H](C(=O)NCCN2CCOCC2)[C@@H]1c1ccc(CO)cc1
Reply: -1.51

Query: Value wanted: composite z-score (Chordin-like protein 2 (CHRDL2)) of entry CCCCCN1CC=CC23O[C@@H]4C=CCCOC(=O)C4[C@H]2C(=O)N(CCCCCCO)[C@@H]3C1=O (stereo not given in full)
Reply: -0.856

Query: Value wanted: composite z-score (Chordin-like protein 2 (CHRDL2)) of entry CC(C)C(CO)N1C(=O)[C@@H]2C3C(=O)OCCC/C=C\[C@H]3OC23C=CCN(c2ccc4ccccc4c2)C(=O)[C@@H]13 (stereo not given in full)
Reply: -1.28

Query: Value wanted: composite z-score (Chordin-like protein 2 (CHRDL2)) of entry COc1ccc(CCNC(=O)[C@@]2(Cc3ccccc3I)c3ccccc3C(=O)N(C3CCCCC3)[C@H]2c2ccc(CO)cc2)cc1
Reply: -0.718

Query: Value wanted: composite z-score (Chordin-like protein 2 (CHRDL2)) of entry CCCCC(CC)C(O)C1C=CC2C(=O)N(C)C(=O)C2N1Nc1ccccc1 (stereo not given)
Reply: -0.113

Query: Value wanted: composite z-score (Chordin-like protein 2 (CHRDL2)) of entry CCOC(=O)C1=C[C@@H](c2ccccc2)N(S(=O)(=O)c2ccc(C)cc2)[C@H]1c1ccc(OC)cc1
Reply: -0.224

Query: Value wanted: composite z-score (Chordin-like protein 2 (CHRDL2)) of entry CCCC=C(CCC)[C@@H](NS(=O)(=O)CC12CCC(CC1=O)C2(C)C)c1ccc(C(=O)OC)cc1 (stereo not given in full)
Reply: -0.14

Query: Value wanted: composite z-score (Chordin-like protein 2 (CHRDL2)) of entry C=CCC(OC(C)=O)[C@@H]1[C@@H](N(Cc2cccc3ccccc23)C(=O)Cc2ccc(OC)cc2)c2cc(OCCCO)ccc2N1C(=O)c1ccc(-c2ccccc2)cc1 (stereo not given in full)
Reply: 0.0133

Query: Value wanted: composite z-score (Chordin-like protein 2 (CHRDL2)) of entry CCCCCCc1nc(Cc2cc(OC)c(OC)c(OC)c2)cc2c1[Si](C(C)C)(C(C)C)OC2
Reply: 0.472

Data provenance: PubChem BioAssay
